Reference source: the MegaScale stability set (Tsuboyama et al. 2023)

B1: EHEE_rd2_0191 (parent)
chain: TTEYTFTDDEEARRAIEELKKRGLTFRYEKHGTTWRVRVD

Variants of: B1
Assay: folding stability dG (cDNA display proteolysis); higher = more stable
Conditions: PBS, room temperature
Classes based on folding stability dG: low = under 1 kcal/mol, mid = from 1 kcal/mol up to 2 kcal/mol, high = 2 kcal/mol and over

These recorded examples may help you get a feel for the data.
• T1Y = high
• V37M = low
• R22V = mid

[ask] Category of `R27L` , please.
[reply] mid

[ask] Category of `T1N` , please.
[reply] mid

[ask] Category of `K21L` , please.
[reply] mid

[ask] Category of `E3F` , please.
[reply] high

[ask] Category of `V39P` , please.
[reply] low

[ask] Category of `G32N` , please.
[reply] mid

[ask] Category of `E3Y` , please.
[reply] high

[ask] Category of `K20V` , please.
[reply] high

[ask] Category of `E17V` , please.
[reply] mid

[ask] Category of `T34D` , please.
[reply] mid

[ask] Category of `T5S` , please.
[reply] mid

[ask] Category of `A15S` , please.
[reply] mid

[ask] Category of `W35Y` , please.
[reply] mid

[ask] Category of `A15N` , please.
[reply] low

[ask] Category of `E11K` , please.
[reply] mid

[ask] Category of `R22N` , please.
[reply] mid
